- target.of.assay: AmpC β-lactamase (Escherichia coli)
- assay.procedure: AmpC β-lactamase competitive inhibition assay (nitrocefin hydrolysis)
Collected pKi values appear next to each entry.
pKi here is simply -log10 of the concentration when that concentration is written in mol/L.

Solved cases (6 shown):
compound: O=C(Oc1cccc(B(O)O)c1)c1cc(B(O)O)cc([N+](=O)[O-])c1
pKi: 5.30
//
compound: O=C(OCc1ccccc1)c1cc(B(O)O)cc([N+](=O)[O-])c1
pKi: 5.35
//
compound: O=C(OCc1ccccc1)c1cccc(B(O)O)c1
pKi: 5.75
//
compound: O=C(OCc1ccccc1COC(=O)c1cc(B(O)O)cc([N+](=O)[O-])c1)c1cc(B(O)O)cc([N+](=O)[O-])c1 [Compound (10a)]
pKi: 6.34
//
compound: O=C(Oc1c(Cl)c(Cl)c(OC(=O)c2cc(B(O)O)cc([N+](=O)[O-])c2)c(Cl)c1Cl)c1cc(B(O)O)cc([N+](=O)[O-])c1
pKi: 5.43
//
compound: O=C(OCc1cccc(B(O)O)c1)c1cc(B(O)O)cc([N+](=O)[O-])c1
pKi: 5.99

Now, please, on to the next compound.
Looking up CC(C)(C)c1cc(OC(=O)c2cc(B(O)O)cc([N+](=O)[O-])c2)ccc1OC(=O)c1cc(B(O)O)cc([N+](=O)[O-])c1 , I see its pKi listed as 5.20

###

- target.of.assay: AmpC β-lactamase (Escherichia coli, UniProt P00811)
- Construct: made in house; host or cells: E. coli BL21 (DE3)
- Sequence (P00811 20-377): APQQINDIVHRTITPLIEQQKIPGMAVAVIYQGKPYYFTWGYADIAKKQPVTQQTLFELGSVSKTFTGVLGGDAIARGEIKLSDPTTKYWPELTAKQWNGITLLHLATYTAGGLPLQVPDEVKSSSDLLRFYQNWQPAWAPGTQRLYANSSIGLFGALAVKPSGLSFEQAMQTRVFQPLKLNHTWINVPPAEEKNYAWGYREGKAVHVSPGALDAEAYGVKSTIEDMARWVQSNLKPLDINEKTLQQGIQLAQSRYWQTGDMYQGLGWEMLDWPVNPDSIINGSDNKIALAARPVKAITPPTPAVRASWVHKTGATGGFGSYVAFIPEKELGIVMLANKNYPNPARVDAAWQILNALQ
- protocol.conditions: binding to AmpC; ITC
Each entry gets not met if its −TΔS stays under -1 kcal/mol, and met if its −TΔS is -1 kcal/mol or above.

Completed entries (count: 6):
molecule: O=C(Oc1ccc(OC(=O)c2ccc(B(O)O)cc2F)c(Cl)c1)c1ccc(B(O)O)cc1F
target.of.assay: AmpC β-lactamase (Escherichia coli, UniProt P00811)
assigned.label: met

molecule: O=C(Oc1c(Cl)cccc1[N+](=O)[O-])c1ccc(B(O)O)cc1F
target.of.assay: AmpC β-lactamase (Escherichia coli, UniProt P00811)
assigned.label: met

molecule: O=C(Oc1cccc(B(O)O)c1)c1cc(B(O)O)cc([N+](=O)[O-])c1
target.of.assay: AmpC β-lactamase (Escherichia coli, UniProt P00811)
assigned.label: met

molecule: O=C(OCc1ccccc1COC(=O)c1cc(B(O)O)cc([N+](=O)[O-])c1)c1cc(B(O)O)cc([N+](=O)[O-])c1 [Compound (10a)]
target.of.assay: AmpC β-lactamase (Escherichia coli, UniProt P00811)
assigned.label: not met

molecule: O=C(Oc1cccc(B(O)O)c1)c1ccc(C(=O)Oc2cccc(B(O)O)c2)cc1 [Compound (11a)]
target.of.assay: AmpC β-lactamase (Escherichia coli, UniProt P00811)
assigned.label: not met

molecule: O=C(Oc1cc(OC(=O)c2cc(B(O)O)cc([N+](=O)[O-])c2)cc(OC(=O)c2cc(B(O)O)cc([N+](=O)[O-])c2)c1)c1cc(B(O)O)cc([N+](=O)[O-])c1 [Compound (12a)]
target.of.assay: AmpC β-lactamase (Escherichia coli, UniProt P00811)
assigned.label: not met

INPUT: Check if −TΔS >= -1 kcal/mol (inclusive). Item: O=C(OCc1ccccc1)c1cccc(B(O)O)c1
OUTPUT: not met

INPUT: State whether the measured −TΔS reaches -1 kcal/mol, counting equality as reaching it, for O=C(OCc1cccc(B(O)O)c1)c1cc(B(O)O)cc([N+](=O)[O-])c1
OUTPUT: met

INPUT: Test whether the molecule CC(C)(C)c1cc(OC(=O)c2cc(B(O)O)cc([N+](=O)[O-])c2)ccc1OC(=O)c1cc(B(O)O)cc([N+](=O)[O-])c1 records −TΔS of -1 kcal/mol or higher.
OUTPUT: not met

INPUT: Does the reported −TΔS for O=C(Oc1ccc(OC(=O)c2cc(B(O)O)cc([N+](=O)[O-])c2)c(Cl)c1)c1cc(B(O)O)cc([N+](=O)[O-])c1 fall at or above the -1 kcal/mol mark?
OUTPUT: not met

INPUT: Determine whether this molecule has −TΔS no lower than -1 kcal/mol: O=C(Oc1cccc(B(O)O)c1)c1c(Cl)cccc1Cl
OUTPUT: not met

Cited source: patent US7183267B2
